- Tested on: SR leukemia
- Method description: NCI-60 one-dose screen, 48 h
- Setup conditions: 10 µM unless noted
This is part of a sample that, as a whole, favours compounds with a hit. Of some 83,000 tested, about 20% had one in any assay. Calls of active or inactive are those of the source. How the source made its calls: active means growth percent below 10; inactive means the rest.
Assign a class; possible classes are active, inactive

Would you please look over these solved cases?
CCOC(=O)c1c(NC(=O)c2cccc(C(F)(F)F)c2)sc2c1CCC(=O)C2    active
COc1ccc2[nH]cc(-c3nn4cc(-c5ccncc5)nc4s3)c2c1    inactive
COC(=O)c1ccc(NC2=C(Cl)C(=O)c3nc(C)ccc3C2=O)cc1    inactive
CCOC(=O)c1cnc2c(-c3ccc(Cl)c(Cl)c3)cnn2c1    inactive

Below: the item to evaluate.
Ask | I'd appreciate the recorded outcome for `COc1cc2oc(-c3cccc(NC(=O)c4cccc([N+](=O)[O-])c4)c3)cc(=O)c2c(OC)c1OC` from this test.
Reply | inactive

###

- Tested on: MCF7 breast
- Method description: NCI-60 one-dose screen, 48 h
- Setup conditions: 10 µM unless noted
This is part of a sample that, as a whole, favours compounds with a hit. Of some 83,000 tested, about 20% had one in any assay. Calls of active or inactive are those of the source. Rule for the calls: active = growth percent below 10; inactive = the rest.
Choose one outcome from this list and give only that: true (1) (active), false (0) (inactive)

Field: example entries. Status: answers known.
Fc1ccc2nc(-c3cnn4cccnc34)sc2c1    false (0)
COc1ccc(C2CC(c3cccc(OCCCCOc4cccc(C5=NN(C(C)=O)C(c6ccc(OC)cc6)C5)c4)c3)=NN2C(C)=O)cc1 (stereo not drawn)    false (0)
COc1cc2cc(Oc3ccc(NC(=O)Nc4ccc(F)c(C(F)(F)F)c4)cc3)c(C)nc2cc1OCCN(C)C    true (1)
CN1CCN(Cc2ccc(NC(=O)c3cncc(C#Cc4cnc5ccc(OCC(F)F)nn45)c3)cc2C(F)(F)F)CC1    true (1)
Cc1[nH]c(C(=O)Nc2ccc(S(=O)(=O)N3CCCCC3)cc2OCCOCCOCCOCCOCCOCCOCCOCCOCCOc2cc(S(=O)(=O)N3CCCCC3)ccc2NC(=O)c2[nH]c(C)c3c2CCCCC3=O)c2c1C(=O)CCCC2    false (0)
N#Cc1c(-c2ccc(Br)cc2)cc(-c2c[nH]c3ccccc23)nc1N    false (0)
Cc1cc(=O)[nH]c(O)c1C#N    false (0)

Okay, next one:
Ask | Outcome logged for `CN1CCN(c2ccc(Nc3nc(NCCNS(=O)(=O)c4ccc(Cl)cc4)c4sccc4n3)cc2)CC1` in this assay:
Reply | false (0)

###

- Test system: SK-MEL-28 melanoma
- Method description: NCI-60 one-dose screen, 48 h (100 = growth as untreated, 0 = no growth, -100 = all killed)
- Setup conditions: 10 µM unless noted
About 83,000 compounds went through this panel and 20% of them were active in at least one assay; those are over-represented in the sample as a whole.
Assign y to entries whose growth meets or exceeds 10%; assign n to the rest.

Below are worked cases with known answers.
O=C(N/N=C\c1ccc(F)cc1)c1ccc2nc(-c3ccc(Br)cc3)[nH]c2c1    y
CCN(CC)S(=O)(=O)c1ccc(-c2nc(C(Cl)Cl)nc3cc(C)nn23)cc1    y
Cc1ccc(C(=O)Nc2ccc(CNCCN3CCNCC3)c(C(F)(F)F)c2)cc1C#Cc1cnc2cccnn12    n
CC(Nc1ncnc2ccc(-c3cnc4cnccn34)cc12)c1ccccc1 (centres undefined)    y

Ask | Item `CC(=O)Nc1nc(C)c(-c2csc(Nc3ccccc3)n2)s1` with growth of 10% or above?
Reply | y

Ask | Given the entry Cc1[nH]c(C(=O)Nc2ccccc2OCc2cccc(C(=O)NC3CCNC3)c2)c(Cl)c1Cl (centres undefined) , answer whether its growth meets or surpasses 10%.
Reply | n

Ask | Decide: growth of `CNC(=O)c1cc(-n2ccc3cc(NC(=O)Nc4ccc(N5CCN(C)CC5)c(C(F)(F)F)c4)ccc32)ccn1` >= 10%?
Reply | n

Ask | Hi team, for C=C(C=O)[C@@H]1CC[C@]2(C(=O)O)CC[C@]3(C)C(CC[C@@H]4[C@@](C)(CCC#N)[C@H](C(=C)C=O)CC[C@]43C)[C@@H]12 (some centres undefined) , is the recorded growth at or above 10%?
Reply | n

Ask | Please indicate if the recorded growth for `N#Cc1c(-c2cccs2)cc(-c2cnccn2)nc1SCC(=O)N/N=C/c1ccncc1` meets or exceeds 10%.
Reply | y

###

- Test system: NCI-H226 lung
- Method description: NCI-60 one-dose screen, 48 h (100 = growth as untreated, 0 = no growth, -100 = all killed)
- Setup conditions: 10 µM unless noted
About 83,000 compounds went through this panel and 20% of them were active in at least one assay; those are over-represented in the sample as a whole.
Decide by growth: equal to or exceeding 80% means 1, less means 0.

Answered examples (7):
CCCC[n+]1ccc(SCC(=O)n2ccc3ccccc32)c2ccccc21    0
COc1ccc(/C=N/NC(=O)CSc2nc(-c3cnccn3)cc(-c3cccs3)c2C#N)cc1    0
Cn1ncc2c(C(=O)c3ccc(F)cc3)nc(C(C)(C)C)nc21    1
Cn1cc(-c2nn3cc(-c4ccncc4)nc3s2)c2cc(F)ccc21    1
Cc1[nH]c(C(=O)Nc2ccccc2OCc2cccc(C(=O)NCCN)c2)cc1Cl    1
C=C(C)[C@@H]1CC[C@]2(COP(=O)(OCC)OCC)CC[C@]3(C)[C@H](CC[C@@H]4[C@@]5(C)CC[C@H](OP(=O)(OCC)OCC)C(C)(C)[C@@H]5CC[C@]43C)[C@@H]12    0
Clc1ccc2[nH]cc(-c3nn4cc(-c5cccnc5)nc4s3)c2c1    1

Let's switch to this molecule now.
Ask | Answer whether growth of O=C1c2ccccc2C23C(=C(c4cncnc4)c4ccccc42)CCCN13 (centres undefined) is greater than or equal to 80%.
Reply | 1

###

- Tested on: MOLT-4 leukemia
- Method description: NCI-60 one-dose screen, 48 h (100 = growth as untreated, 0 = no growth, -100 = all killed)
- Setup conditions: 10 µM unless noted
About 83,000 compounds went through this panel and 20% of them were active in at least one assay; those are over-represented in the sample as a whole.
Short version: growth at least 10% is rule met, less is rule not met.

For orientation, consider the following solved cases.
Cc1[nH]c(C(=O)Nc2ccccc2OCc2cccc(C(=O)NC3CCCNC3)c2)c(Cl)c1Cl (centres undefined)    rule not met
COc1ccc([C@@H]2C(=O)N(c3cc(OC)c(OC)c(OC)c3)[C@H]2c2ccc(OC)c(O)c2)cc1    rule met
CCc1cc(O)ccc1Nc1cc(-c2ccc(-n3cccn3)cc2)[nH]n1    rule met
Cc1ccsc1[C@H]1c2[nH]c3ccccc3c2C[C@H]2C(=O)N(CCCCCCC(=O)NO)CC(=O)N12    rule met

Ask | Hi team, for `Cc1ccc(/C=N/Nc2nc(Nc3ccccc3)nc(Nc3ccc(S(N)(=O)=O)cc3)n2)cc1` , is the recorded growth at or above 10%?
Reply | rule met

Ask | Hello, I need to know if `Fc1ccc(-c2cn3c(-c4c[nH]c5ccc(Br)cc45)csc3n2)cc1` has measured growth not below 10%. Thanks!
Reply | rule met

Ask | Evaluate `Cc1ccc(C)c(NC2=C(Cl)C(=O)c3nc(C)ccc3C2=O)c1` : growth at minimum 10%?
Reply | rule not met

###

growth by entry:
- Tested on: UO-31 renal
- Method description: NCI-60 one-dose screen, 48 h (100 = growth as untreated, 0 = no growth, -100 = all killed)
- Setup conditions: 10 µM unless noted
Compounds without any hit were thinned out: in the full panel of roughly 83,000, 20% have a hit.
Please respond with the number in % and leave the unit unwritten.

The examples below pair each entry with its known result.
CC1=C(C)C(=O)C(Nc2cccc(C(=O)OC(C)(C)C)c2)=C(Cl)C1=O    86.5
CC1(C)C=Cc2cc(/C(N)=N/C(N)=N/c3nc4ccccc4s3)ccc2O1    64.9

Ask | Which value of growth has been reported for `COc1ccc2c(c1)c(/C=N/Nc1ccnc3cc(Cl)ccc13)cn2C` in the records?
Reply | -89.5

Ask | What value of growth has been reported for the following compound? `NC(=O)n1c(=O)n(-c2cccc(C(F)(F)F)c2)c(=O)c2cc(-c3ccc(F)cc3F)ccc21`
Reply | 4.54

Ask | Form field: reported growth of `CN(C)CC(=O)Nc1nc(-c2cccc(NS(=O)(=O)c3cccc4c(N(C)C)cccc34)c2)cs1`
Reply | 70.4

Ask | Which growth is listed for `CCOC(=O)c1cccc(NC2=C(Cl)C(=O)c3nc(C)ccc3C2=O)c1` ?
Reply | 93.1

Ask | Any idea what growth was measured for `CN1CCN(CCNc2nc(-c3cccc(NS(=O)(=O)c4cccc5c(N(C)C)cccc45)c3)cs2)CC1` ?
Reply | 56.8

Ask | Reported growth, compound `CCN1CCN(c2ccc(NC(=O)Nc3ccc4c(ccn4-c4ccnc(C(=O)NC)c4)c3)cc2C(F)(F)F)CC1` : ____
Reply | 71

Ask | Recorded growth for `Cc1csc(/N=C(N)/N=C(\N)c2cccs2)n1` , please?
Reply | 81.5
